- experimentalTarget: FLT1 (human) (UniProt P17948)
- Sequence (P17948 whole entry, looked up): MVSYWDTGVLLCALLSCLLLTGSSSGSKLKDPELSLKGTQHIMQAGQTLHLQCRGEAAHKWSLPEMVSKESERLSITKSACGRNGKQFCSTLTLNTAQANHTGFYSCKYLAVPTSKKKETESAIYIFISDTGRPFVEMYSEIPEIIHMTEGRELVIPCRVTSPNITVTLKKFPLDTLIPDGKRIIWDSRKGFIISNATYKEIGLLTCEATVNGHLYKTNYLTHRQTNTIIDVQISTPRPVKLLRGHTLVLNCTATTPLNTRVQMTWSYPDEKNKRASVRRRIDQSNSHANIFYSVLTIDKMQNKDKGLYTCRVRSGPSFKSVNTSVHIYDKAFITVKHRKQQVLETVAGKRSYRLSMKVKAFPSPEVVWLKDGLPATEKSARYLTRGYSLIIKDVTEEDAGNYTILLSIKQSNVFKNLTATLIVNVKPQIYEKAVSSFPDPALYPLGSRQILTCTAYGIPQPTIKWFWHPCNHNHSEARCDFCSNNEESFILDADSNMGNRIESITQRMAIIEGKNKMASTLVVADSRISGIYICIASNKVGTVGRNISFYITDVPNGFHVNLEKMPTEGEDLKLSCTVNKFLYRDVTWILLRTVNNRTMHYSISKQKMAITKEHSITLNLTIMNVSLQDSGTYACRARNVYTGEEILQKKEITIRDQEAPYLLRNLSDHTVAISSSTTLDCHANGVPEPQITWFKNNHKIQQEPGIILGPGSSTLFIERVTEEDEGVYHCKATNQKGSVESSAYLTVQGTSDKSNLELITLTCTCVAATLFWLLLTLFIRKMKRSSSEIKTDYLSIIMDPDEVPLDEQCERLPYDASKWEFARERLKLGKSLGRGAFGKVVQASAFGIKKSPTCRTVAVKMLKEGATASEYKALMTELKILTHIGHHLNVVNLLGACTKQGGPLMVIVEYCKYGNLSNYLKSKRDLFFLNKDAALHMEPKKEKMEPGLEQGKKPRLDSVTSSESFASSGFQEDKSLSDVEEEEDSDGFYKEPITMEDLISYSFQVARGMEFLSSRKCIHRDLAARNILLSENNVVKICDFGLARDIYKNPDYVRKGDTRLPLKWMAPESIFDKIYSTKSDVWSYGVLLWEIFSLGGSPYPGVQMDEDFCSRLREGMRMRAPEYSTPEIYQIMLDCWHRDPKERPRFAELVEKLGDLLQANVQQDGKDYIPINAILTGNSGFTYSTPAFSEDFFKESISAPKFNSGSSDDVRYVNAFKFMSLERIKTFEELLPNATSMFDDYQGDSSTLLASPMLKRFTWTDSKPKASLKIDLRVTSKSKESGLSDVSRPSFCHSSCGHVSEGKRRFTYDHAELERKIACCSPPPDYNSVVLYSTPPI
- procedureText: radiometric filter-binding kinase assay, Kinase HotSpot
- details: compound 0.5 µM; ATP 10 µM
endpoint: residual activity (%)
Record the value in %, omitting the unit from your answer.

>  <molecule>
CC(C)N(CCC(=O)c1ccc2ccccc2c1)Cc1ccccc1

>  <experimentalTarget>
FLT1 (human) (UniProt P17948)

>  <residual activity (%)>
86

$$$$
>  <molecule>
CO[C@H]1CC2CC[C@@H](C)[C@@](O)(O2)C(=O)C(=O)N2CCCC[C@H]2C(=O)OC([C@H](C)C[C@@H]2CC[C@@H](O)[C@H](OC)C2)CC(=O)[C@H](C)/C=C(\C)[C@@H](O)[C@@H](OC)C(=O)[C@H](C)C[C@H](C)/C=C/C=C/C=C/1C (stereo partly drawn)

>  <experimentalTarget>
FLT1 (human) (UniProt P17948)

>  <residual activity (%)>
97.7

$$$$

Field: next molecule
Quick one: residual activity for CCN(CC)CCNC(=O)c1c(C)[nH]c(/C=C2\C(=O)Nc3ccc(Cl)cc32)c1C ?
34.4

----------
Let's look at some molecules and their measured residual activity.
- experimentalTarget: PRKD2 (human) (UniProt Q9BZL6)
- Sequence (Q9BZL6 whole entry, looked up): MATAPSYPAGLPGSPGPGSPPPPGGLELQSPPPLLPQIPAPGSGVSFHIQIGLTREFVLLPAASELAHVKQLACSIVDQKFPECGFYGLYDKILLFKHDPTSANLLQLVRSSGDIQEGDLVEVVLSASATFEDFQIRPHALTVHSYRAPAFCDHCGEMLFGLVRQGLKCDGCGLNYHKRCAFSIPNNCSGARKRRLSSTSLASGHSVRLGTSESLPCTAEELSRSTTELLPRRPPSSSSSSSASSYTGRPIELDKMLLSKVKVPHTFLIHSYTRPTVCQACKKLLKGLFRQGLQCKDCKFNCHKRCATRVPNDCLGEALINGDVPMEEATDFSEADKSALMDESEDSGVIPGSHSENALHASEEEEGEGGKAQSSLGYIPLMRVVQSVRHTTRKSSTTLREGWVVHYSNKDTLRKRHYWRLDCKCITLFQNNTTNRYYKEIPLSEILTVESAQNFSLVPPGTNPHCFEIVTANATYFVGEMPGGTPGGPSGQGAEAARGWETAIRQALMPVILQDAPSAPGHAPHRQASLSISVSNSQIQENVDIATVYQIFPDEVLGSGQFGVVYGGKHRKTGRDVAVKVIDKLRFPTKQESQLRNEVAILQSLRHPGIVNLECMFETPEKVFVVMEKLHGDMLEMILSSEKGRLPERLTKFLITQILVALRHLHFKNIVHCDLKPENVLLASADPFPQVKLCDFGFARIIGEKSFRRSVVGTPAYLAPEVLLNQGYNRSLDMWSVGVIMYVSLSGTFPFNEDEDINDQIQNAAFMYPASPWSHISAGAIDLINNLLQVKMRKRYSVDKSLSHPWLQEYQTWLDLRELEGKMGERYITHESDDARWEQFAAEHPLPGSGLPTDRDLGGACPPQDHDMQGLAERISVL
- procedureText: radiometric filter-binding kinase assay, Kinase HotSpot
- details: compound 0.5 µM; ATP 10 µM
Write the numeric value and follow it with the unit.

Example results:
>  <mol>
O=C1NC(=O)c2c1c1c3ccccc3n3c1c1c2c2ccccc2n1C1CCC3O1

>  <endpoint>
residual activity

>  <experimentalResult>
2.02%

$$$$
>  <mol>
CCN(CC)C(=O)c1ccc(Nc2nc(OCC3CCCCC3)c3nc[nH]c3n2)cc1

>  <endpoint>
residual activity

>  <experimentalResult>
67%

$$$$
>  <mol>
CC(C)N(CCC(=O)c1ccc2ccccc2c1)Cc1ccccc1

>  <endpoint>
residual activity

>  <experimentalResult>
98.5%

$$$$
>  <mol>
CNC(=O)c1cc(Oc2ccc(NC(=O)Nc3ccc(Cl)c(C(F)(F)F)c3)cc2)ccn1

>  <endpoint>
residual activity

>  <experimentalResult>
96.2%

$$$$
>  <mol>
O=C1Nc2ccc(Cl)cc2/C1=C/c1cc(Cl)c(O)c(Cl)c1

>  <endpoint>
residual activity

>  <experimentalResult>
95.5%

$$$$
>  <mol>
c1ccc(-c2n[nH]c3c2oc2ccccc23)cc1

>  <endpoint>
residual activity

>  <experimentalResult>
86.9%

$$$$
>  <mol>
O=C(Nc1cccc(Nc2nccc(Nc3cccc(C(F)(F)F)c3)n2)c1)C1CC1

>  <endpoint>
residual activity

>  <experimentalResult>
101%

$$$$
>  <mol>
CCN(CC)CCNC(=O)c1c(C)[nH]c(/C=C2\C(=O)Nc3ccc(F)cc32)c1C

>  <endpoint>
residual activity

>  <experimentalResult>
21.1%

$$$$
>  <mol>
CCOC(=O)c1c(C)[nH]c(/C=C2\C(=O)Nc3ccccc32)c1C

>  <endpoint>
residual activity

>  <experimentalResult>
97.1%

$$$$
>  <mol>
N#CC(C#N)=C(N)/C(C#N)=C/c1ccc(O)cc1

>  <endpoint>
residual activity

>  <experimentalResult>
100%

$$$$

Field: next molecule
For the record Nc1ccc2ncnc(NCCc3ccc(Oc4ccccc4)cc3)c2c1 , what value of residual activity is listed for PRKD2 (human) (UniProt Q9BZL6)?
98.2%

----------
- experimentalTarget: UniProt:Q16512
- Sequence (Q16512 whole entry, looked up): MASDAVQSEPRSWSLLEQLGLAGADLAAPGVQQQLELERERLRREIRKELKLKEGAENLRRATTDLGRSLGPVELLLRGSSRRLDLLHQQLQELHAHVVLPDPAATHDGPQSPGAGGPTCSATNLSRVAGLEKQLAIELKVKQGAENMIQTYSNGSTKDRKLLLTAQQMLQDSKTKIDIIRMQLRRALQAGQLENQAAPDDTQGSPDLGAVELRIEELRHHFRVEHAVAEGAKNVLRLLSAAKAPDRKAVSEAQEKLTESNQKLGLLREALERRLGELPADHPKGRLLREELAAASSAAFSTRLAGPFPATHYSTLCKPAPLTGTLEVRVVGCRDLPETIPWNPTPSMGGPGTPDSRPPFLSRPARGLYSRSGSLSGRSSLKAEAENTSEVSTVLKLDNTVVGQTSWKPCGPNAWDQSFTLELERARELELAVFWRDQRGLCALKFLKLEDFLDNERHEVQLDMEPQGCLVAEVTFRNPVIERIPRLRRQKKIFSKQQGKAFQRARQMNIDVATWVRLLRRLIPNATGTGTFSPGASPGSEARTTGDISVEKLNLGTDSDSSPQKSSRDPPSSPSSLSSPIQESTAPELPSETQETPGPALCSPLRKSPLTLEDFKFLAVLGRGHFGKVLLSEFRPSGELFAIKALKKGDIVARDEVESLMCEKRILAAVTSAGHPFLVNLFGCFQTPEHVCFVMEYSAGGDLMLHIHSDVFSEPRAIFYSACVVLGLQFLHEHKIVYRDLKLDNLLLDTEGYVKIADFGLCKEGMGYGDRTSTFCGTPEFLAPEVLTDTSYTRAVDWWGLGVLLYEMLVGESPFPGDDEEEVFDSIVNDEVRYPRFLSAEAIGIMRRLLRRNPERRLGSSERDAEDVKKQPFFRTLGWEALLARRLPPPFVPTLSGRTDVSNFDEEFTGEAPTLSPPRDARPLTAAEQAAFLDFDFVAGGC
- procedureText: radiometric filter-binding kinase assay, Kinase HotSpot
- details: compound 0.5 µM; ATP 10 µM
endpoint: residual activity (%)
Record the value in %, omitting the unit from your answer.

Quick one: residual activity for COc1ccc(COc2ccc(Cc3cnc(N)nc3N)cc2OC)cc1 ?
101

Quick one: residual activity for O=C1NC(=O)c2c1c1c3ccccc3n3c1c1c2c2ccccc2n1C1CCC3O1 ?
2.68

Quick one: residual activity for CC(C)N(CCC(=O)c1ccc2ccccc2c1)Cc1ccccc1 ?
107

Quick one: residual activity for Oc1cccc(-c2nc(N3CCOCC3)c3oc4ncccc4c3n2)c1 ?
101

Quick one: residual activity for Cc1[nH]c(/C=C2\C(=O)Nc3ccc(S(=O)(=O)N(C)c4cccc(Cl)c4)cc32)c(C)c1C(=O)N1CCN(C)CC1 ?
86.4

----------
- experimentalTarget: PRKCD (human) (UniProt Q05655)
- procedureText: radiometric filter-binding kinase assay, Kinase HotSpot
- details: compound 0.5 µM; ATP 10 µM
Decision: residual activity >= 90% yields T, all other cases yield F.

Some solved entries appear below for comparison.
>  <compound>
Nc1cccc(-c2cc3c(Oc4cccc(O)c4)ncnc3[nH]2)c1

>  <group>
T

$$$$
>  <compound>
CO[C@H]1CC2CC[C@@H](C)[C@@](O)(O2)C(=O)C(=O)N2CCCC[C@H]2C(=O)OC([C@H](C)C[C@@H]2CC[C@@H](O)[C@H](OC)C2)CC(=O)[C@H](C)/C=C(\C)[C@@H](O)[C@@H](OC)C(=O)[C@H](C)C[C@H](C)/C=C/C=C/C=C/1C (some centres undefined)

>  <group>
T

$$$$
>  <compound>
N#CC(C#N)=C(N)/C(C#N)=C/c1ccc(O)cc1

>  <group>
T

$$$$

Determine whether measured residual activity meets or exceeds 90% for CCC(=O)Nc1ccc2ncnc(Nc3cccc(Br)c3)c2c1
T

----------
- experimentalTarget: NTRK1 (human) (UniProt P04629)
- Sequence (P04629 whole entry, looked up): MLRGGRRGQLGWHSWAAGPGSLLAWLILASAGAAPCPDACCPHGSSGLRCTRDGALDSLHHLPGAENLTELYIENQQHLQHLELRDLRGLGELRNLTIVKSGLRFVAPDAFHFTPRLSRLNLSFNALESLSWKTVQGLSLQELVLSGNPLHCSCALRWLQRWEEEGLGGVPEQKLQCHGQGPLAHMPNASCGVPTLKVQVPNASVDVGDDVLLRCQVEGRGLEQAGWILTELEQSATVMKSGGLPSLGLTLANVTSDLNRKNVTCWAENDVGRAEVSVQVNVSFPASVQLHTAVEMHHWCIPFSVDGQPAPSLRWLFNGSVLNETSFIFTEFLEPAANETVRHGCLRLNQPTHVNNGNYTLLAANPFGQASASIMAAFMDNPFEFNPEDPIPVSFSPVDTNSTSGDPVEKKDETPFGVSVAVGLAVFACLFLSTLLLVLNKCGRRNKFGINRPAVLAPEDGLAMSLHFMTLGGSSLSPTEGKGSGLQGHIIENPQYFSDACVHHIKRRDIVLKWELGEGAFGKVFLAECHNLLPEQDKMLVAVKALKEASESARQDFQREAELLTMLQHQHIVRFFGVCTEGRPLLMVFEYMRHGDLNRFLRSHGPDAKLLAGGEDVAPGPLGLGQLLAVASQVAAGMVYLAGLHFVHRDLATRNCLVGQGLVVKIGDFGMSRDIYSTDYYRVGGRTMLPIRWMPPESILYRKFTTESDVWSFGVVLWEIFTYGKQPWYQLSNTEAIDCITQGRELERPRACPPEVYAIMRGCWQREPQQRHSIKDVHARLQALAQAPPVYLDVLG
- procedureText: radiometric filter-binding kinase assay, Kinase HotSpot
- details: compound 0.5 µM; ATP 10 µM
Let's look at some compounds and their measured residual activity.
Record the value in %, omitting the unit from your answer.

>  <mol>
CC#CC(=O)Nc1cc2c(Nc3ccc(F)c(Cl)c3)ncnc2cn1

>  <unitInfo>
%

>  <residual activity>
98.5

$$$$
>  <mol>
Cc1ccc(NC2=CC(=O)c3sc(C)nc3C2=O)cc1

>  <unitInfo>
%

>  <residual activity>
80.6

$$$$
>  <mol>
Cc1ccc(S(=O)(=O)/C=C/C#N)cc1

>  <unitInfo>
%

>  <residual activity>
90.1

$$$$
>  <mol>
Cc1[nH]c(/C=C2\C(=O)Nc3ccc(S(=O)(=O)N(C)c4cccc(Cl)c4)cc32)c(C)c1C(=O)N1CCN(C)CC1

>  <unitInfo>
%

>  <residual activity>
7.81

$$$$
>  <mol>
N#CC(C#N)=C(N)/C(C#N)=C/c1ccc(O)cc1

>  <unitInfo>
%

>  <residual activity>
102

$$$$
>  <mol>
O=C1NC(=O)C(c2cn(CCCn3ccnc3)c3ccccc23)=C1Nc1ccccc1

>  <unitInfo>
%

>  <residual activity>
104

$$$$
>  <mol>
Nc1ncnc2[nH]nc(Nc3ccc(F)cc3)c12

>  <unitInfo>
%

>  <residual activity>
109

$$$$
>  <mol>
CCN(CC)C(=O)c1ccc(Nc2nc(OCC3CCCCC3)c3nc[nH]c3n2)cc1

>  <unitInfo>
%

>  <residual activity>
81.4

$$$$
>  <mol>
CC(C)N(CCC(=O)c1ccc2ccccc2c1)Cc1ccccc1

>  <unitInfo>
%

>  <residual activity>
94.8

$$$$
>  <mol>
c1ccc(-c2n[nH]c3c2oc2ccccc23)cc1

>  <unitInfo>
%

>  <residual activity>
85.6

$$$$

Field: next compound
For the record O=C(Nc1cccc(Nc2nccc(Nc3cccc(C(F)(F)F)c3)n2)c1)C1CC1 , what value of residual activity is listed for NTRK1 (human) (UniProt P04629)?
98.1

----------
Let's look at some compounds and their measured residual activity.
- experimentalTarget: MAPK12 (human) (UniProt P53778)
- Sequence (P53778 whole entry, looked up): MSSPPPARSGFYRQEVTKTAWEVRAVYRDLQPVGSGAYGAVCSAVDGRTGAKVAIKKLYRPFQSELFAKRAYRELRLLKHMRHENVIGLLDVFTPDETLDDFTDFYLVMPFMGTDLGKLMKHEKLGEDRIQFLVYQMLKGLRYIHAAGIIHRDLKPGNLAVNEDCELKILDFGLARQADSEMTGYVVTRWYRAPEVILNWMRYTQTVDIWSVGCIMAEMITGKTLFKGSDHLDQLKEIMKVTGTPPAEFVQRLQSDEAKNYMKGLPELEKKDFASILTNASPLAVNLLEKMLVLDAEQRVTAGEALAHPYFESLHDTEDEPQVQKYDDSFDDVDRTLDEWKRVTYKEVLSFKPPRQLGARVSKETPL
- procedureText: radiometric filter-binding kinase assay, Kinase HotSpot
- details: compound 0.5 µM; ATP 10 µM
Record the value in %, omitting the unit from your answer.

>  <mol>
CCOC(=O)c1c(C)[nH]c(/C=C2\C(=O)Nc3ccccc32)c1C

>  <unitInfo>
%

>  <residual activity>
101

$$$$
>  <mol>
c1ccc(-c2n[nH]cc2-c2ccnc3ccccc23)nc1

>  <unitInfo>
%

>  <residual activity>
106

$$$$

Quick one: residual activity for Cc1ccc(S(=O)(=O)/C=C/C#N)cc1 ?
90.5

Quick one: residual activity for O=S(=O)(c1cccc2cnccc12)N1CCCNCC1 ?
99.3

Quick one: residual activity for Cc1[nH]c(/C=C2\C(=O)Nc3ccc(S(=O)(=O)N(C)c4cccc(Cl)c4)cc32)c(C)c1C(=O)N1CCN(C)CC1 ?
99.8

Quick one: residual activity for CNC(=O)c1cc(Oc2ccc(NC(=O)Nc3ccc(Cl)c(C(F)(F)F)c3)cc2)ccn1 ?
94.2

Quick one: residual activity for CCC(=O)Nc1ccc2ncnc(Nc3cccc(Br)c3)c2c1 ?
103

Quick one: residual activity for O=c1cc(N2CCOCC2)oc2c1ccc1ccccc12 ?
97.4

----------
Let's look at some compounds and their measured residual activity.
- experimentalTarget: CDK2 CCNA2 (human) (UniProt P24941+P20248)
- Sequence (P20248 whole entry, looked up, other chains not shown): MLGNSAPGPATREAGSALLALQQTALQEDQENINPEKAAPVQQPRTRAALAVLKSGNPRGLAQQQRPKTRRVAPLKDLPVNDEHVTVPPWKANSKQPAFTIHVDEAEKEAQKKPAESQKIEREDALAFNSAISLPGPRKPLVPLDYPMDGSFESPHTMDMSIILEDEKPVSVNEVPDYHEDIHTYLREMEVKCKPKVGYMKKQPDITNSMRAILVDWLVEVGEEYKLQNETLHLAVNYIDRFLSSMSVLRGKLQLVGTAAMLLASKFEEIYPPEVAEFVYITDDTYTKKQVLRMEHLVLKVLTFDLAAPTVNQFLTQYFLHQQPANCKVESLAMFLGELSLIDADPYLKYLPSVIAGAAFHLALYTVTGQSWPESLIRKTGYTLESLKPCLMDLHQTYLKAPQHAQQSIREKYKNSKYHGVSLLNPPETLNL
- procedureText: radiometric filter-binding kinase assay, Kinase HotSpot
- details: compound 0.5 µM; ATP 10 µM
Record the value in %, omitting the unit from your answer.

>  <compound>
O=C1NC(=O)/C(=C/c2ccc3c(c2)OC(F)(F)O3)S1

>  <unitInfo>
%

>  <experimentalResult>
107

$$$$
>  <compound>
CC[n+]1c(/C=C/N(C)c2ccccc2)n(-c2ccccc2)c2ccc(-c3nc4ccccc4s3)cc21

>  <unitInfo>
%

>  <experimentalResult>
100

$$$$
>  <compound>
Oc1cccc(-c2nc(N3CCOCC3)c3oc4ncccc4c3n2)c1

>  <unitInfo>
%

>  <experimentalResult>
104

$$$$
>  <compound>
CO[C@H]1CC2CC[C@@H](C)[C@@](O)(O2)C(=O)C(=O)N2CCCC[C@H]2C(=O)OC([C@H](C)C[C@@H]2CC[C@@H](O)[C@H](OC)C2)CC(=O)[C@H](C)/C=C(\C)[C@@H](O)[C@@H](OC)C(=O)[C@H](C)C[C@H](C)/C=C/C=C/C=C/1C (some centres undefined)

>  <unitInfo>
%

>  <experimentalResult>
101

$$$$
>  <compound>
CCN(CC)CCNC(=O)c1c(C)[nH]c(/C=C2\C(=O)Nc3ccc(Cl)cc32)c1C

>  <unitInfo>
%

>  <experimentalResult>
92.8

$$$$

Quick one: residual activity for CNC(=O)c1cc(Oc2ccc(NC(=O)Nc3ccc(Cl)c(C(F)(F)F)c3)cc2)ccn1 ?
99.7

Quick one: residual activity for Nc1ncnc2c1c(-c1ccc(Oc3ccccc3)cc1)cn2C1CCCC1 ?
104

Quick one: residual activity for c1ccc(-c2n[nH]cc2-c2ccnc3ccccc23)nc1 ?
98.7
